- tested.target: HvExoI W286Y mutant (Hordeum vulgare, UniProt Q9XEI3, W311Y)
- experimental.details: Relative rates of hydrolysis of poly-, oligosaccharides and aryl-glycosides
- Assay type: biochemical
- condition.info: substance is the substrate, nd = activity not detected

{"molecule": "OC[C@H]1O[C@@H](O[C@@H]2[C@@H](O)[C@H](O[C@@H]3[C@@H](O)[C@H](O[C@H]4[C@H](O)[C@@H](CO)OC(O)[C@@H]4O)O[C@H](CO)[C@H]3O)O[C@H](CO)[C@H]2O)[C@H](O)[C@@H](O)[C@@H]1O (stereo partly drawn) [Laminaritetraose]", "Activity (relative rate of hydrolysis) [μmole/min per mg protein]": 13.8}
{"molecule": "OC[C@H]1O[C@@H](O[C@@H]2[C@@H](O)[C@H](O[C@@H]3[C@@H](O)[C@H](O[C@@H]4[C@@H](O)[C@H](O[C@@H]5[C@@H](O)[C@H](O[C@@H]6[C@@H](O)[C@H](O[C@@H]7[C@@H](O)[C@H](O)O[C@H](CO)[C@H]7O)O[C@H](CO)[C@H]6O)O[C@H](CO)[C@H]5O)O[C@H](CO)[C@H]4O)O[C@H](CO)[C@H]3O)O[C@H](CO)[C@H]2O)[C@H](O)[C@@H](O)[C@@H]1O [Laminariheptaose]", "Activity (relative rate of hydrolysis) [μmole/min per mg protein]": 14.5}
{"molecule": "OC[C@H]1O[C@@H](O[C@H]2[C@H](O)[C@@H](O)[C@H](O[C@H]3[C@H](O)[C@@H](O)[C@H](O[C@H]4[C@H](O)[C@@H](O)[C@H](O[C@H]5[C@H](O)[C@@H](O)C(O)O[C@@H]5CO)O[C@@H]4CO)O[C@@H]3CO)O[C@@H]2CO)[C@H](O)[C@@H](O)[C@@H]1O (stereo partly drawn) [Cellopentaose]", "Activity (relative rate of hydrolysis) [μmole/min per mg protein]": 5.8}

* * *

- tested.target: HvExoI W286F mutant (Hordeum vulgare, UniProt Q9XEI3, W311F)
- Sequence (Q9XEI3 26-630 W311F): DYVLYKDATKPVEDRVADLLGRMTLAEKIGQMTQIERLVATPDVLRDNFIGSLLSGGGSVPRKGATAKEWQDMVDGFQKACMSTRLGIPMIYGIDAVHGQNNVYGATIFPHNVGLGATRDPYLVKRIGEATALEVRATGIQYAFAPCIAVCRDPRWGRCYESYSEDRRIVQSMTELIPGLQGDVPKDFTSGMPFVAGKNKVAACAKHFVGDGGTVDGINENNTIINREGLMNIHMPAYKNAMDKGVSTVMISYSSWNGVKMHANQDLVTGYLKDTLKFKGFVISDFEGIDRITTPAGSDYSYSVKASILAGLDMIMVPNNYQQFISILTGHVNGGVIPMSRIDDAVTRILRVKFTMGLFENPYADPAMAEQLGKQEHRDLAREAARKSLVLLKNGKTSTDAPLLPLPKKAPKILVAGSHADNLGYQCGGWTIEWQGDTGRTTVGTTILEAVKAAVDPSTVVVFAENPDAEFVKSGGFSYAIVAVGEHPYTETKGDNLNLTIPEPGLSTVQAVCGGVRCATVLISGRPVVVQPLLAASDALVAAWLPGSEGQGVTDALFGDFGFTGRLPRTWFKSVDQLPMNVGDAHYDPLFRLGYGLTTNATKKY
- experimental.details: Relative rates of hydrolysis of poly-, oligosaccharides and aryl-glycosides
- Type: biochemical
- condition.info: substance is the substrate, nd = activity not detected
Each entry below carries its recorded Activity (relative rate of hydrolysis).

{"compound": "OC[C@H]1O[C@@H](O[C@@H]2[C@@H](O)[C@H](O[C@@H]3[C@@H](O)[C@H](O[C@@H]4[C@@H](O)[C@H](O[C@@H]5[C@@H](O)[C@H](O[C@@H]6[C@@H](O)[C@H](O[C@@H]7[C@@H](O)[C@H](O)O[C@H](CO)[C@H]7O)O[C@H](CO)[C@H]6O)O[C@H](CO)[C@H]5O)O[C@H](CO)[C@H]4O)O[C@H](CO)[C@H]3O)O[C@H](CO)[C@H]2O)[C@H](O)[C@@H](O)[C@@H]1O [Laminariheptaose]", "Activity (relative rate of hydrolysis) [μmole/min per mg protein]": 1.2}
{"compound": "OC[C@H]1O[C@@H](O[C@H]2[C@H](O)[C@@H](O)[C@H](O[C@H]3[C@H](O)[C@@H](O)[C@H](O[C@H]4[C@H](O)[C@@H](O)[C@H](O[C@H]5[C@H](O)[C@@H](O)[C@H](O[C@H]6[C@H](O)[C@@H](O)C(O)O[C@@H]6CO)O[C@@H]5CO)O[C@@H]4CO)O[C@@H]3CO)O[C@@H]2CO)[C@H](O)[C@@H](O)[C@@H]1O (stereo partly shown) [Cellohexaose]", "Activity (relative rate of hydrolysis) [μmole/min per mg protein]": 0.1}
{"compound": "OC[C@H]1O[C@@H](O[C@H]2C(O)O[C@H](CO)[C@@H](O)[C@@H]2O)[C@H](O)[C@@H](O)[C@@H]1O (stereo partly shown) [Sophorose]", "Activity (relative rate of hydrolysis) [μmole/min per mg protein]": 0.6}
{"compound": "O=[N+]([O-])c1ccc(O[C@@H]2O[C@H](CO)[C@@H](O)[C@H](O)[C@H]2O)cc1 [4NP-Glc, 4-nitrophenyl β-D-glucopyranoside]", "Activity (relative rate of hydrolysis) [μmole/min per mg protein]": 0.9}
